System: MOLT-4 leukemia
Test: NCI-60 one-dose screen, 48 h (100 = growth as untreated, 0 = no growth, -100 = all killed)
Settings: 10 µM
This is part of a sample that, as a whole, favours compounds with a hit. Of some 83,000 tested, about 20% had one in any assay.
Task for the reader: assign each of the following compounds its reported growth.
The response must be a number in % with no trailing unit.

For reference, reported growth for `C[N+]1=C(/C=C/c2ccc(I)cc2)C(C)(C)c2ccccc21` stands at 8.77

For reference, reported growth for `COc1cc(/C=C/C(=O)c2cc(-c3ccc(C(F)(F)F)cc3)ccc2O)cc(OC)c1OC` stands at 15.5

For reference, reported growth for `c1ccc(CNc2nc(Nc3ccc(-c4nc5ccccc5[nH]4)cc3)c3cn[nH]c3n2)cc1` stands at -39.7

For reference, reported growth for `C/C=C\COc1cc(C)c(Cl)cc1Cl` stands at 108

For reference, reported growth for `COCc1cc2c(cc1Br)OCO2` stands at 107

For reference, reported growth for `COc1cc(C(=O)n2nc(N)c3c(C)cc(C)nc32)cc(OC)c1OC` stands at 36

For reference, reported growth for `COc1ccc(-c2cn[nH]c2-c2cc(OC)c(OC)c(OC)c2)cc1` stands at 4.95

For reference, reported growth for `COc1ccc(S(=O)(=O)Nc2cc(/C=C\c3cc(OC)c(OC)c(OC)c3)ccc2OC)cc1` stands at 8.46

For reference, reported growth for `Cc1cc(C(C)(C)CC(C)(C)C)ccc1OCCOCC[N+](C)(C)Cc1ccccc1` stands at -39.6

For reference, reported growth for CC(=O)OC1Oc2ccccc2-c2oc(=O)c(-c3ccc(F)cc3)cc21 (stereo not given) stands at 88.6

For reference, reported growth for `Cc1cc(C#Cc2ccccc2)ccc1-n1c(/C=C/c2cc(O)ccc2O)nc2ccccc2c1=O` stands at 3.81

For reference, reported growth for `O=C(N/N=C\c1cc(Cl)ccc1O)c1ccncc1` stands at 15.9

For reference, reported growth for `COc1ccc(-c2cc(/C=C3\C(=O)Nc4cc(Cl)ccc43)[nH]n2)cc1OC` stands at 75

For reference, reported growth for `Cc1nn2c(/C=C3/C(=O)Nc4ccc(Cl)cc43)c(-c3ccccc3)nc2s1` stands at 57.2

For reference, reported growth for `CCOC(=O)c1c(Cl)c2c(n1Cc1cccc(OC)c1)-c1oncc1CC2` stands at 25.9

For reference, reported growth for Cc1cc(O)c(C2=NN(c3ccc(S(N)(=O)=O)cc3)C(c3ccc(N(C)C)cc3)C2)c(C)c1Cl (stereo not given) stands at 27.3

For reference, reported growth for `Cn1c([N+](=O)[O-])cnc1C=C1C(=O)c2ccccc2C1=O` stands at 21.8

For reference, reported growth for `O=C(Nc1ccc(OCc2nnc(-c3ccccc3)o2)c(F)c1)Nc1ccc(Cl)c(Cl)c1` stands at 43.8

For reference, reported growth for `C[n+]1c(/C=C/c2c[nH]c3ccccc23)ccc2ccccc21` stands at 9.37

For reference, reported growth for `N#C/C(=C/c1cc([N+](=O)[O-])ccc1Cl)C(N)=O` stands at 87.1

For reference, reported growth for `CCOC(=O)C(=O)Cc1cccnn1` stands at 93.4

For reference, reported growth for O=c1[nH]c(=O)n(C2C[C@@H](O)[C@@H](CO)O2)cc1F (stereo not given in full) stands at 32.5

For reference, reported growth for `Cc1ccc(-c2cc(-c3cccc(Nc4ccnc5cc(Cl)ccc45)c3)nc3nc(N)[nH]c(=O)c23)cc1` stands at 81.8

For reference, reported growth for `COc1cc(/C=C/C(=O)c2cc(-c3ccc(F)cc3)ccc2O)cc(OC)c1OC` stands at 26.3

For reference, reported growth for `CC(=O)n1nc(C(=O)OC(C)(C)C)c2cc(F)c(F)cc21` stands at 95
